Cited source: patent US6737383B1

System: pigweed
protocol-notes: Test B pre/postemergence pigweed
Type: in vivo, Amaranthus retroflexus
conditions: Rate 500 g/ha, Postemergence; scale 0 to 10

compound: CC(C)N(C(=O)n1oc(=O)n(C)c1=O)c1ccc(F)cc1 [Compound 138]
system-name: pigweed
Redroot pigweed plant response rating: 8
//
compound: CC(C)N(C(=O)n1oc(=O)n(-c2ccc(OC(F)(F)F)cc2)c1=O)c1ccc(F)cc1 [Compound 202]
system-name: pigweed
Redroot pigweed plant response rating: 7
//
compound: CC(C)N(C(=O)n1oc(=O)n([C@@H](C)c2ccccc2)c1=O)c1ccc(F)cc1 [Compound 167]
system-name: pigweed
Redroot pigweed plant response rating: 7
//
compound: C=CCn1c(=O)on(C(=O)N(c2ccc(F)cc2)C2CC2)c1=O [Compound 154]
system-name: pigweed
Redroot pigweed plant response rating: 6
